TESTED SYSTEM: Human HDAC2 (Homo sapiens (Human))
Sequence (Q92769 whole entry): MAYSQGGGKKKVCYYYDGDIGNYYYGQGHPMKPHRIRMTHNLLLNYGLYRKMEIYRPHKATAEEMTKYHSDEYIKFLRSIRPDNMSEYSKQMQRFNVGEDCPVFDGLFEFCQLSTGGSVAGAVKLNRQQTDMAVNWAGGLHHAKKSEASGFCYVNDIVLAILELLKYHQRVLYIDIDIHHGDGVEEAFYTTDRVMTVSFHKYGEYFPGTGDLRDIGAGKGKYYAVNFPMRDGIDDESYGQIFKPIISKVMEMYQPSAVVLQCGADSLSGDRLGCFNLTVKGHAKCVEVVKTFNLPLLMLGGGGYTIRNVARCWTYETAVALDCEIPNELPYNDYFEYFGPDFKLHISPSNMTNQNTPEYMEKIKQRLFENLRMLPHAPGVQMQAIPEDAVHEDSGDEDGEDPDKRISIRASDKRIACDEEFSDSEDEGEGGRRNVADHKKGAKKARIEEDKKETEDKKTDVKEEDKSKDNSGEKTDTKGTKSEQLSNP
ASSAY SUMMARY: HDAC2 fluorogenic peptide deacetylation assay
Assay type: biochemical
RUN CONDITIONS: human HDAC2, 50 μM substrate, 30° C., 2 h; read-out: IC50 (nM) of enzyme activity HDAC2
MEASURE NAME: IC50

Sample answers from the record:
| SMILES TEXT | IC50 |
| --- | --- |
| COc1ccc(-c2cc(-c3ccoc3)c(C(=O)NCc3ccc(C(=O)NO)cc3)[nH]2)cc1 | 157 nM |
| COc1ccc(-c2cc(-c3ccccc3)[nH]c2C(=O)NCc2ccc(C(=O)Nc3ccccn3)cc2)cc1 | > 5000 nM |

Lookup: IC50 lookup needed for O=C(NO)c1ccc(CNC(=O)c2[nH]c(-c3cccs3)cc2-c2ccc(O)cc2)cc1 , thanks.
Found: 1910 nM

* * *

Overview of recorded melting point for various molecules

Sample answers from the record:
| SMILES TEXT | melting point |
| --- | --- |
| COc1ccc(-c2cc(-c3ccccc3)[nH]c2C(=O)Nc2ccc(C(=O)NO)cc2)cc1 | 234 to 235 °C |
| COc1ccc(-c2cc(-c3ccccc3)[nH]c2C(=O)Nc2ccc(C(=O)NO)o2)cc1 | 160 to 162 °C |
| O=C(NO)c1ccc(CNC(=O)c2[nH]c(-c3ccccc3)cc2-c2ccc(F)cc2)o1 | 152 to 153 °C |
| COc1ccc(-c2cc(-c3ccccc3)[nH]c2C(=O)NCc2ccc(C(=O)Nc3ccccn3)cc2)cc1 | 196 °C (dec.) |

Lookup: melting point lookup needed for O=C(NO)c1ccc(CNC(=O)c2[nH]c(-c3cccs3)cc2-c2ccc(O)cc2)cc1 , thanks.
Found: 171 to 172 °C

Lookup: melting point lookup needed for COc1ccc(-c2cc(-c3ccccc3)[nH]c2C(=O)NCc2ccc(C(=O)Nc3ccccc3S)cc2)cc1 , thanks.
Found: 134 to 135 °C

* * *

TESTED SYSTEM: Human HDAC10 (Homo sapiens (Human), UniProt Q969S8)
Sequence (Q969S8 1-631): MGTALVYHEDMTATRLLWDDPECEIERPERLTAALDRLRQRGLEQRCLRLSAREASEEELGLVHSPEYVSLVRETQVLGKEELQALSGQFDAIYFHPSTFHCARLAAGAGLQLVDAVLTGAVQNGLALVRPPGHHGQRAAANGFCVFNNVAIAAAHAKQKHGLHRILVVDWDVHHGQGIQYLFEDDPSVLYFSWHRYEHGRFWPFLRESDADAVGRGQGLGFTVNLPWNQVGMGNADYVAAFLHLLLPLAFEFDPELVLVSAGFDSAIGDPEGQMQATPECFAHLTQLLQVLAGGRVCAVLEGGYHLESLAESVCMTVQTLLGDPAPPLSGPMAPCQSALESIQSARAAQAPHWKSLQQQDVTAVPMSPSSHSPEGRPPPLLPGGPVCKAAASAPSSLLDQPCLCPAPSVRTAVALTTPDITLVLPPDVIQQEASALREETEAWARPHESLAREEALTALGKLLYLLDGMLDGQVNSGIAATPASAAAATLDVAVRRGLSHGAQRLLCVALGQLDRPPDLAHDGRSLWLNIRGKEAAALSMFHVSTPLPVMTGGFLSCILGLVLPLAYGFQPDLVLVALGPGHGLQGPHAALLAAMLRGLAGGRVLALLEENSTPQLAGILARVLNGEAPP
ASSAY SUMMARY: HDAC10 fluorogenic peptide deacetylation assay
Assay type: biochemical
RUN CONDITIONS: human HDAC10, 50 μM substrate, 30° C., 2 h; read-out: IC50 (nM) of enzyme activity HDAC10
Overview of recorded IC50 for various compounds

Sample answers from the record:
| SMILES TEXT | TESTED SYSTEM | MEASURE NAME | MEASURED VALUE |
| --- | --- | --- | --- |
| Nc1ccccc1NC(=O)c1ccc(CNC(=O)c2[nH]c(-c3ccc(O)cc3)cc2-c2ccoc2)cc1 | Human HDAC10 (Homo sapiens (Human), UniProt Q969S8) | IC50 | 8550 nM |
| O=C(NO)c1ccc(CNC(=O)c2[nH]c(-c3ccc(O)cc3)cc2-c2ccsc2)cc1 | Human HDAC10 (Homo sapiens (Human), UniProt Q969S8) | IC50 | 316 nM |
| O=C(NO)c1ccc(CNC(=O)c2[nH]c(-c3ccc(O)cc3)cc2-c2ccoc2)cc1 | Human HDAC10 (Homo sapiens (Human), UniProt Q969S8) | IC50 | 35 nM |

From here, focus on the item given below.
Lookup: IC50 lookup needed for COc1ccc(-c2cc(-c3ccsc3)c(C(=O)NCc3ccc(C(=O)NO)cc3)[nH]2)cc1 , thanks.
Found: 723 nM

* * *

TESTED SYSTEM: histone deacetylase from rat liver
ASSAY SUMMARY: Rat liver HDAC assay
Format: biochemical
RUN CONDITIONS: Boc-Lys(Ac)-AMC substrate, 30° C., 2 h, read-out: IC50 (nM) of enzyme activity Rat liver
// assign T if IC50 falls strictly below 80 nM, else F (ties count as F)

Some solved entries appear below for comparison.
| SMILES TEXT | CATEGORY |
| --- | --- |
| O=C(NO)c1ccc(CNC(=O)c2[nH]c(-c3ccccc3)cc2-c2cccc(Br)c2)cc1 | F |
| COc1ccc(-c2cc(-c3ccccc3)[nH]c2C(=O)NCc2ccc(C(=O)NO)cc2)cc1 | T |
| COc1ccc(-c2cc(-c3ccccc3)[nH]c2C(=O)Nc2ccc(C(=O)NO)o2)cc1 | F |
| Cc1ccc(-c2cc(-c3ccc(F)cc3)c(C(=O)NCc3ccc(C(=O)NO)cc3)[nH]2)cc1 | F |
| COc1ccc(-c2cc(-c3ccccc3)[nH]c2C(=O)NCc2ccc(C(=O)NCCS)cc2)cc1 | F |

Lookup: For this compound, is IC50 lower than 80 nM? COc1ccc(-c2cc(-c3ccccc3)[nH]c2C(=O)Nc2cccc(CC(=O)NO)c2)cc1
Found: F

Lookup: For this compound, is IC50 lower than 80 nM? O=C(NO)c1ccc(CNC(=O)c2[nH]c(-c3ccccc3)cc2-c2ccc(Cl)c(Cl)c2)cc1
Found: F

* * *

TESTED SYSTEM: histone deacetylase from rat liver
ASSAY SUMMARY: Rat liver HDAC assay
Assay type: biochemical
RUN CONDITIONS: Boc-Lys(Ac)-AMC substrate, 30° C., 2 h, read-out: IC50 (nM) of enzyme activity Rat liver
MEASURE NAME: IC50 (nM)
Give the number; nM is assumed, so skip it.

Sample answers from the record:
| SMILES TEXT | IC50 (nM) |
| --- | --- |
| O=C(NO)c1ccc(CNC(=O)c2[nH]c(-c3cccnc3)cc2-c2ccc(F)cc2)cc1 | 70 |
| COc1ccc(-c2cc(-c3ccccc3)[nH]c2C(=O)NCc2ccc(C(=O)NO)cc2)cc1OC | 119 |
| O=C(NO)c1ccc(CNC(=O)c2[nH]c(-c3ccccc3)cc2-c2ccc(Br)cc2)cc1 | 99 |
| O=C(NO)c1ccc(CNC(=O)c2[nH]c(-c3ccccc3)cc2-c2ccc(C(F)(F)F)cc2)cc1 | 170 |

Lookup: IC50 lookup needed for O=C(NO)c1ccc(CNC(=O)c2[nH]c(-c3ccccc3)cc2-c2ccc(F)cc2)cc1 , thanks.
Found: 71

* * *

Overview of recorded IC50 for various molecules
Tested on: MIAPACA-2
ASSAY SUMMARY: Cancer cell growth inhibition, MIAPACA-2
Assay type: cell-based, human
RUN CONDITIONS: Homo sapiens, MIA PaCa-2; MIAPACA-2, Pancreatic Cancer, 72 h treatment
Give the number; nM is assumed, so skip it.

Sample answers from the record:
| SMILES TEXT | TESTED SYSTEM | UNITS SYMBOL | IC50 |
| --- | --- | --- | --- |
| O=C(NO)c1ccc(CNC(=O)c2[nH]c(-c3ccc(O)cc3)cc2-c2ccoc2)cc1 | MIAPACA-2 | nM | 270 |
| O=C(NO)c1ccc(CNC(=O)c2[nH]c(-c3ccoc3)cc2-c2ccc(O)cc2)cc1 | MIAPACA-2 | nM | 2810 |
| COc1ccc(-c2cc(-c3ccoc3)c(C(=O)NCc3ccc(C(=O)NO)cc3)[nH]2)cc1 | MIAPACA-2 | nM | 881 |
| COc1ccc(-c2cc(-c3ccsc3)c(C(=O)NCc3ccc(C(=O)NO)cc3)[nH]2)cc1 | MIAPACA-2 | nM | 7520 |

From here, focus on the item given below.
Lookup: IC50 lookup needed for O=C(NO)c1ccc(CNC(=O)c2[nH]c(-c3ccc(O)cc3)cc2-c2ccsc2)cc1 , thanks.
Found: 428

* * *

System: Calu-6
ASSAY SUMMARY: Cancer cell growth inhibition, Calu-6
Format: cell-based, human
RUN CONDITIONS: Calu-6, Lung Cancer, 72 h treatment
Description: Cell culture-based assays were used to evaluate the ability of compounds of the invention to inhibit cancer cell growth inhibition. Cells were obtained from the American Type Culture Collection (ATCC). Cells were cultured at 37° C. with 5% CO2 in the appropriate growth medium (see table below), and harvested respectively during the logarithmic growth period and counted with hemocytometer. The cell viability was over 98% by trypan blue exclusion. […]
MEASURE NAME: pIC50
// scale note: pIC50 = -log10(conc_M); give the bare number

Lookup: pIC50 lookup needed for N.N.[Cl][Pt][Cl] [Cisplatin, reference compound] , thanks.
Found: 5.79

* * *

System: KB
ASSAY SUMMARY: Cancer cell growth inhibition, KB
Type: cell-based, human
RUN CONDITIONS: Homo sapiens, Oral Cancer, 72 h treatment
MEASURE NAME: IC50 (nM)
Give the number; nM is assumed, so skip it.

| MOLECULE | IC50, nM |
| --- | --- |
| O=C(NO)c1ccc(CNC(=O)c2[nH]c(-c3ccoc3)cc2-c2ccc(O)cc2)cc1 [Example 9] | 2960 |

Lookup: IC50 lookup needed for COc1ccc(-c2cc(-c3ccsc3)c(C(=O)NCc3ccc(C(=O)NO)cc3)[nH]2)cc1 [Example 28] , thanks.
Found: 3420

Lookup: IC50 lookup needed for O=C(NO)c1ccc(CNC(=O)c2[nH]c(-c3ccc(O)cc3)cc2-c2ccsc2)cc1 [Example 14] , thanks.
Found: 702

Lookup: IC50 lookup needed for O=C(NO)c1ccc(CNC(=O)c2[nH]c(-c3ccc(O)cc3)cc2-c2ccoc2)cc1 [Example 15] , thanks.
Found: 184

Lookup: IC50 lookup needed for COc1ccc(-c2cc(-c3ccoc3)c(C(=O)NCc3ccc(C(=O)NO)cc3)[nH]2)cc1 [Example 27] , thanks.
Found: 315
